Metric name: melting point

Compound	melting point
CC1=CC[C@H](CC(=O)Nc2nnc(C34CC5CC(CC(C5)C3)C4)s2)C1(C)C [15a]	209.2 to 210.1 °C
CC1=CC[C@@H](CCSc2nc(C34CC5CC(CC(C5)C3)C4)n[nH]2)C1(C)C [14b]	111.8 to 112.4 °C

Reported melting point of CC1(C)[C@@H]2CC[C@@]1(CS(=O)(=O)Nc1nnc(C34CC5CC(CC(C5)C3)C4)s1)C(=O)C2 : 200.3 to 200.5 °C

###

# collection of IC50 values tested on TDP1 (Homo sapiens)
# Sequence (Q9NUW8 whole entry): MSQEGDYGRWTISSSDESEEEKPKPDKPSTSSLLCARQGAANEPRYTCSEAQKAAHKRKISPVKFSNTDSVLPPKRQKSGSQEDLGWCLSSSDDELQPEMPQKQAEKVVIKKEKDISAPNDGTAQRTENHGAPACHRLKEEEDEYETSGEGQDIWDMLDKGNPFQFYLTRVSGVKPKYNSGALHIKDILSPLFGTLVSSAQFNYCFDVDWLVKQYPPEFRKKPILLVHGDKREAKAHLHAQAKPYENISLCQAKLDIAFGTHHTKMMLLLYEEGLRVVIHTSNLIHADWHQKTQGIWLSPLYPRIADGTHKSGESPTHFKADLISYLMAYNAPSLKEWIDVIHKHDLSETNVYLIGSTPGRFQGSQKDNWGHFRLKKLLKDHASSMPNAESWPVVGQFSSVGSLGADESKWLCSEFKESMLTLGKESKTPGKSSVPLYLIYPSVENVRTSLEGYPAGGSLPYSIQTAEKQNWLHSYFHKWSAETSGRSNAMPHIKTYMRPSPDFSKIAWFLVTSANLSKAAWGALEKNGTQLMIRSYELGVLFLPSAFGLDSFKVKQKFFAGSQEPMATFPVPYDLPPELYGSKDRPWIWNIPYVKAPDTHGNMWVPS

Molecule	Tgt	IC50
CC1(C)[C@@H]2CC[C@@]1(C(=O)Nc1nnc(C34CC5CC(CC(C5)C3)C4)s1)C(=O)C2	TDP1 (Homo sapiens)	> 30 µM
CC1=CC[C@@H](CC(=O)Nc2nnc(C34CC5CC(CC(C5)C3)C4)s2)C1(C)C [15b]	TDP1 (Homo sapiens)	~5 µM

Moving on to the next molecule.
Reported IC50 of CC1(C)[C@@H]2CC[C@@]1(CS(=O)(=O)Nc1nnc(C34CC5CC(CC(C5)C3)C4)s1)C(=O)C2 : > 30 µM
